Species on record: Mus musculus
Experiment: Antagonism of tetrabenazine (TBZ)-induced depression in mice measured for ptosis
Format: functional
Details: Mus musculus; read-out: ED50
measured-metric: ED50 (mg/kg)
Write it as a number; the unit mg/kg goes unstated.

{"columns": ["smiles-code", "ED50 [mg/kg]"],
 "data": [
  ["Br.Oc1cc2c(cc1O)[C@H]1CCCN1C[C@H]2c1ccccc1", 0.53],
  ["Br.Nc1ccc([C@@H]2CN3CCC[C@H]3c3ccccc32)cc1", 0.2],
  ["O[C@]1(c2ccccc2)CN2CCC[C@H]2c2ccccc21", 1.6],
  ["Br.Oc1ccc([C@@H]2CN3CCC[C@@H]3c3ccccc32)cc1", 0.09]
]}

# ---- query molecule ----
Lookup: # query: ED50 of entry `Br.Oc1ccc([C@@H]2CN3CCC[C@H]3c3ccccc32)cc1`
Found: 2

###

Species: Mus musculus
Assay: Gross behavioral effects ascertained in mice; W indicates weak stimulant or depressant activity of little significance.
Type: functional, organism-based
measured-metric: behavior

Please review the following examples before continuing.
{"columns": ["compound", "behavior"],
 "data": [
  ["Clc1ccc([C@@H]2CN3CCC[C@H]3c3ccccc32)cc1Cl", "Weak"],
  ["Clc1ccc([C@@H]2CN3CCC[C@H]3c3cc(Cl)ccc32)cc1", "Weak"],
  ["Br.Cn1ccc2c1[C@H](c1ccccc1)CN1CCC[C@@H]21", "Weak"],
  ["FC(F)(F)c1cccc([C@@H]2CN3CCC[C@@H]3c3ccccc32)c1 (stereo in doubt; (+)-37b)", "Partial stimulant"],
  ["Br.c1ccc([C@@H]2CN3CCCCC[C@H]3c3ccccc32)cc1", "Weak"]
]}

Lookup: What does the record list as behavior for `c1ccc2c(c1)[C@H](C1CCCCC1)CN1CCC[C@@H]21` ?
Found: Weak

Lookup: If you can, please state the reported behavior value of `c1ccc([C@@H]2CN3CCCC[C@H]3c3ccccc32)cc1` .
Found: Weak

Lookup: Given the entry `C[C@@]12CCCN1C[C@H](c1ccc(Cl)cc1)c1ccccc12` , report its measured behavior.
Found: Weak

Lookup: Given c1ccc([C@@H]2CN3CCC[C@@H]3c3ccccc32)cc1 (stereo in doubt; (-)-7b) , state its recorded behavior.
Found: Partial stimulant

Lookup: // lookup behavior for `C[C@@]12CCCCN1C[C@H](c1ccccc1)c1ccccc12`
Found: Weak

Lookup: Please look up its behavior: `Br.COc1cc([C@@H]2CN3CCC[C@@H]3c3ccccc32)cc(OC)c1OC`
Found: Partial stimulant

###

Molecular target: D(2) dopamine receptor (Rattus norvegicus)
Experiment: Binding affinity towards dopamine receptor D2 at 1.0 uM concentration
measured-metric: inhibition (%)
The figure you give is taken to be in %; do not add the unit.

Look over these answered cases.
{"columns": ["molecule", "unit-string", "inhibition"],
 "data": [
  ["Br.Oc1cc2c(cc1O)[C@@H]1CCCN1C[C@H]2c1ccccc1", "%", 19],
  ["Br.COc1ccc([C@@H]2CN3CCC[C@@H]3c3ccccc32)cc1OC", "%", -1],
  ["CN(C)CCCN1c2ccccc2CCc2ccccc21", "%", 63],
  ["c1ccc([C@@H]2CN3CCC[C@@H]3c3ccccc32)cc1 (stereo in doubt; (-)-7b)", "%", 14]
]}

Here is another molecule to look at.
Lookup: Please report the recorded inhibition for CSc1ccc([C@@H]2CN3CCC[C@@H]3c3ccccc32)cc1 (stereo in doubt; 48b) .
Found: 4

###

Organism: Mus musculus
Assay: Gross behavioral effects ascertained in mice; W indicates weak stimulant or depressant activity of little significance.
Format: functional, organism-based
measured-metric: behavior

Would you please look over these solved cases?
{"columns": ["molecule", "measured-metric", "result"],
 "data": [
  ["Br.c1ccc([C@H]2Cc3ccccc3[C@@H]3CCCN23)cc1", "behavior", "Weak"],
  ["Br.C[C@@]1(c2ccccc2)CN2CCC[C@H]2c2ccccc21", "behavior", "Weak"],
  ["Clc1ccc([C@@H]2CN3CCC[C@@H]3c3cc(Cl)ccc32)cc1", "behavior", "Partial stimulant"],
  ["Br.c1ccc([C@@H]2Cc3ccccc3[C@@H]3CCCN23)cc1", "behavior", "Weak"],
  ["C[C@@]12CCCN1C[C@@H](c1ccc(Cl)cc1)c1ccccc12", "behavior", "Weak"],
  ["Br.CCCCc1ccc([C@@H]2CN3CCC[C@H]3c3ccccc32)cc1", "behavior", "Weak"],
  ["c1ccc([C@@H]2CN3CCC[C@H]3c3ccccc32)cc1", "behavior", "Weak"],
  ["FC(F)(F)c1cccc([C@@H]2CN3CCC[C@@H]3c3ccccc32)c1 (stereo in doubt; 37b)", "behavior", "Partial stimulant"]
]}

Lookup: Which behavior reading was recorded for the molecule `COc1cccc([C@@H]2CN3CCC[C@@H]3c3ccccc32)c1` ?
Found: Partial stimulant

Lookup: # lookup: behavior of `Br.O=[N+]([O-])c1ccc([C@@H]2CN3CCC[C@@H]3c3ccccc32)cc1`
Found: Weak

Lookup: Given `Br.Cn1ccc2c1[C@@H](c1ccccc1)CN1CCC[C@@H]21` , state its recorded behavior.
Found: Weak

Lookup: So what's the measured behavior for this one? `C[C@H]1[C@H](c2ccccc2)c2ccccc2[C@@H]2CCCN21`
Found: Weak

Lookup: Please give the measured behavior for this molecule: `c1ccc([C@@H]2CN3CC[C@@H]4CCCC[C@@]43c3ccccc32)cc1`
Found: Weak

Lookup: Which behavior is reported for this molecule? `C[C@@H]1[C@@H](c2ccccc2)c2ccccc2[C@@H]2CCCN12`
Found: Weak

Lookup: behavior lookup needed for CCN1Cc2ccccc2C(c2ccccc2)C1 (stereo unspecified) , thanks.
Found: Weak

Lookup: For the molecule shown here, `Br.CS(=O)(=O)c1ccc([C@@H]2CN3CCC[C@H]3c3ccccc32)cc1` , give the reported behavior.
Found: Weak

Lookup: Which behavior is reported for this molecule? `COc1ccc([C@@H]2CN3CCC[C@H]3c3ccccc32)cc1OC`
Found: Weak

Lookup: // query behavior value for entry `Br.c1ccc2c(c1)[C@@H](C1CCCCC1)CN1CCC[C@@H]21`
Found: Weak

Lookup: // lookup behavior for `Br.COc1cccc([C@@H]2CN3CCC[C@H]3c3ccccc32)c1`
Found: Weak

###

Target: UniProtKB P31652
Sequence (P31652 whole entry): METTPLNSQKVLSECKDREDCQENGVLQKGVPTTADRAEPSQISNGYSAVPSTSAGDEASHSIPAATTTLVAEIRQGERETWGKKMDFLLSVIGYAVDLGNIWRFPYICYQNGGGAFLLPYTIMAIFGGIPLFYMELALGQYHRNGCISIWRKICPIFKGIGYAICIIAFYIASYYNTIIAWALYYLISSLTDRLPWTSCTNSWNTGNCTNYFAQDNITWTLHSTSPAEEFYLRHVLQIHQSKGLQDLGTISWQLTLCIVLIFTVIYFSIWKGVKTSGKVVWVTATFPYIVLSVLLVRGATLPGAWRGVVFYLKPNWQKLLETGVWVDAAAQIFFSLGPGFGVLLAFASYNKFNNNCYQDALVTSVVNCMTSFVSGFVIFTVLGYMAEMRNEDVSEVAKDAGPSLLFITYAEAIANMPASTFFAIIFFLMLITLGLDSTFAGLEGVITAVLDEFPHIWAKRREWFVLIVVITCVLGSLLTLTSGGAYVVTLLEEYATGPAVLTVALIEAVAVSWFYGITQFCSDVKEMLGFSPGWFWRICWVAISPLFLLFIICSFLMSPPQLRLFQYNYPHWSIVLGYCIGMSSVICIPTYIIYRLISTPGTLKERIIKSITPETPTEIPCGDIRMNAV
Test: Ability to inhibit the uptake of [3H]- serotonin(5-HT) 0.1 uM concentration at rat brain synaptosomes
Assay type: functional, subcellular
measured-metric: inhibition (%)
Please reply with the bare figure in % and do not write the unit itself.

Please review the entries below; each comes with its answer.
{"columns": ["smiles-code", "quantitative-result"],
 "data": [
  ["FC(F)(F)c1cccc([C@@H]2CN3CCC[C@H]3c3ccccc32)c1", 9],
  ["Br.CCCCc1ccc([C@@H]2CN3CCC[C@H]3c3ccccc32)cc1", 3],
  ["c1ccc([C@@H]2CN3CCC[C@@H]3c3ccccc32)cc1", 16],
  ["FC(F)(F)c1cccc([C@@H]2CN3CCC[C@H]3c3cccc(Cl)c32)c1", 22],
  ["c1ccc2c(c1)CCN1CCC[C@@H]21", -10]
]}

Now for a further compound.
Lookup: What value of inhibition has been reported for the following compound? `C[C@@]12CCCCN1C[C@H](c1ccccc1)c1ccccc12`
Found: 15

###

Biological target: Adrenergic receptor alpha-1 (Rattus norvegicus) (UniProt P15823+P23944+P43140)
Assay: Binding affinity towards alpha-1 adrenergic receptor at 1.0 uM concentration
Assay type: protein assay
Assign class by inhibition: not lower than 60% means y; lower than 60% means n.

Consider the following illustrative entries.
{"columns": ["molecule", "system-tested", "class"],
 "data": [
  ["COc1cccc([C@@H]2CN3CCC[C@@H]3c3ccccc32)c1", "Adrenergic receptor alpha-1 (Rattus norvegicus) (UniProt P15823+P23944+P43140)", "y"],
  ["FC(F)(F)c1cccc([C@@H]2CN3CCC[C@@H]3c3ccccc32)c1 (stereo in doubt; (+)-37b)", "Adrenergic receptor alpha-1 (Rattus norvegicus) (UniProt P15823+P23944+P43140)", "n"],
  ["Br.COc1cc([C@@H]2CN3CCC[C@H]3c3ccccc32)cc(OC)c1OC", "Adrenergic receptor alpha-1 (Rattus norvegicus) (UniProt P15823+P23944+P43140)", "y"],
  ["Br.COc1ccc([C@@H]2CN3CCC[C@@H]3c3ccccc32)cc1OC", "Adrenergic receptor alpha-1 (Rattus norvegicus) (UniProt P15823+P23944+P43140)", "n"],
  ["CN1CCc2cc(Cl)c(O)cc2[C@@H](c2ccccc2)C1", "Adrenergic receptor alpha-1 (Rattus norvegicus) (UniProt P15823+P23944+P43140)", "y"],
  ["Br.Nc1ccc([C@@H]2CN3CCC[C@H]3c3ccccc32)cc1", "Adrenergic receptor alpha-1 (Rattus norvegicus) (UniProt P15823+P23944+P43140)", "y"],
  ["Clc1ccc([C@@H]2CN3CCC[C@@H]3c3ccccc32)cc1Cl", "Adrenergic receptor alpha-1 (Rattus norvegicus) (UniProt P15823+P23944+P43140)", "n"],
  ["Clc1ccc([C@@H]2CN3CCC[C@@H]3c3cc(Cl)ccc32)cc1", "Adrenergic receptor alpha-1 (Rattus norvegicus) (UniProt P15823+P23944+P43140)", "n"],
  ["Br.CSc1ccc([C@@H]2CN3CCC[C@H]3c3ccccc32)cc1", "Adrenergic receptor alpha-1 (Rattus norvegicus) (UniProt P15823+P23944+P43140)", "n"]
]}

Lookup: Please tell me: is the molecule COc1ccc2c(c1)CN(C)CC2c1ccc(Cl)c(Cl)c1 (stereo unspecified) at or over 60% in terms of inhibition?
Found: n
